Where do the numbers come from? From patent US20080031866A1.

Assay: Intracolonic dosing with and without β-glucuronidase, catheterized rat
Type: in vivo
Conditions: male, Sprague Dawley, rat, plasma, 10 mg/kg, rats N=6; Compound 1 10 mg/kg intracolonic without enzyme; read-out: AUC average ± standard deviation 0 to 6 hours
Exercise: state measured AUC for each of the molecules provided.
One number for each entry, in ng·h/mL.

// batch mode: one AUC value per listed entry
1. COc1cc2c(cc1OC)-c1n[nH]c(Nc3cccc(F)c3)c1C2
2. COc1cc2c(cc1OC)-c1nn(C3OC(C(=O)O)C(O)C(O)C3O)c(Nc3cccc(F)c3)c1C2 (stereo in doubt)
3. COc1cc2c(cc1OC)-c1n[nH]c(N(c3cccc(F)c3)[C@H]3O[C@@H](C(=O)O)[C@H](O)[C@@H](O)[C@@H]3O)c1C2

A:
15.5
499
5060

###

Experiment: Oral gavage pharmacokinetics, jugular and portal vein sampling, first pass metabolism
Format: in vivo, rat
Settings: male, Sprague Dawley, rat, plasma (jugular vein sample); rats N=4; Compound 1 75 mg/kg oral gavage; jugular sample; 4 hrs
Method: Two separate IV studies were carried out using two separate lots of animals. IV-A was run on the same lot of animals as the oral gavage study and IV-B was run on the same lot of animals as the intraduodenal and intra-colonic studies. For the oral gavage dosing, Compound 1 was prepared in neat PEG-400. […] The two glucuronide conjugates were prepared and purified to permit accurate quantification of the levels of intact parent Compound 1 versus Cpd 1-GluA and Cpd 1-GluB. […]
Exercise: state measured concentration at 4 h for each of the compounds provided.
Quick note: number first, unit second.

Example compounds with recorded concentration at 4 h:
COMPOUND	concentration at 4 h
COc1cc2c(cc1OC)-c1n[nH]c(N(c3cccc(F)c3)[C@H]3O[C@@H](C(=O)O)[C@H](O)[C@@H](O)[C@@H]3O)c1C2	3750 ng/mL
COc1cc2c(cc1OC)-c1n[nH]c(Nc3cccc(F)c3)c1C2	61.3 ng/mL

With those in mind, consider the next compound.
Q: If you can, please state the reported concentration at 4 h value of COc1cc2c(cc1OC)-c1nn(C3OC(C(=O)O)C(O)C(O)C3O)c(Nc3cccc(F)c3)c1C2 (stereo in doubt) .
A: 51.4 ng/mL

###

Test: Oral gavage pharmacokinetics, jugular and portal vein sampling, first pass metabolism
Assay type: in vivo, rat
Conditions: male, Sprague Dawley, rat, portal vein plasma; rats N=4; Compound 1 75 mg/kg oral gavage; portal sample; 0.08 hrs
PARAMETER_MEASURED: concentration at 0.08 h (ng/mL)
Give bare numbers, in ng/mL.

Example compounds with recorded concentration at 0.08 h:
COMPOUND	RESULT
COc1cc2c(cc1OC)-c1n[nH]c(N(c3cccc(F)c3)[C@H]3O[C@@H](C(=O)O)[C@H](O)[C@@H](O)[C@@H]3O)c1C2	9460
COc1cc2c(cc1OC)-c1n[nH]c(Nc3cccc(F)c3)c1C2	7520

With those in mind, consider the next compound.
Q: If you can, please state the reported concentration at 0.08 h value of COc1cc2c(cc1OC)-c1nn(C3OC(C(=O)O)C(O)C(O)C3O)c(Nc3cccc(F)c3)c1C2 (stereo in doubt) .
A: 82.8

###

Test: IV pharmacokinetics of Compound 1 and its glucuronides in rats
Assay type: in vivo, rat
Details: Sprague Dawley, rat, plasma; male rats N=4; Compound 1 2 mg/kg IV; retro orbital sinus; 2 hrs
Exercise: state measured concentration at 2 h for each of the molecules provided.
Quick note: number first, unit second.

MOLECULE	concentration at 2 h
COc1cc2c(cc1OC)-c1n[nH]c(N(c3cccc(F)c3)[C@H]3O[C@@H](C(=O)O)[C@H](O)[C@@H](O)[C@@H]3O)c1C2	492 ng/mL

// batch mode: one concentration at 2 h value per listed entry
1. COc1cc2c(cc1OC)-c1n[nH]c(Nc3cccc(F)c3)c1C2
2. COc1cc2c(cc1OC)-c1nn(C3OC(C(=O)O)C(O)C(O)C3O)c(Nc3cccc(F)c3)c1C2 (stereo in doubt)

A:
16.3 ng/mL
5.5 ng/mL
